Taken from patent US8835440B2.

Molecular target: CCR2 (Homo sapiens, UniProt P41597)
Construct: Membranes were prepared from THP-1 cells; endogenous in cells; host or cells: THP-1 cells (membrane preparation)
Sequence (P41597 1-360 isoform P41597-2): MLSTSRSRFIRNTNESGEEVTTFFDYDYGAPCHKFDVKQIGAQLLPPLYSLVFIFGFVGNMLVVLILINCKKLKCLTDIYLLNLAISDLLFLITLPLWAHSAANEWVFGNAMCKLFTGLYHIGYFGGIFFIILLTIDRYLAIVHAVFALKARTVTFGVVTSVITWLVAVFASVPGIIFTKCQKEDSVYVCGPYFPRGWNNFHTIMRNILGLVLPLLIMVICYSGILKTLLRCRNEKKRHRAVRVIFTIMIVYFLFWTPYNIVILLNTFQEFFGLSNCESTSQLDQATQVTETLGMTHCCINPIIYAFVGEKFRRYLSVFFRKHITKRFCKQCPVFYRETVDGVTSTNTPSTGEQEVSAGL
Experiment: CCR2 receptor membrane binding assay ([125I]MCP-1, THP-1 cell membranes, SPA beads)
Settings: dissociation constant hKi; [125I]MCP-1 binding to THP-1 membranes
pKi: −log10 of the molar value.
Assign Condition met whenever pKi does not fall below 7; assign Condition not met whenever it does.

// known answers, use as guide
{"MOLECULE": "Cc1c(NCc2cccc(-c3ccccc3)c2)ncnc1C(=O)N1CCC(N2CCC(O)CC2)CC1", "MEASURED_ON": "CCR2 (Homo sapiens, UniProt P41597)", "QUALITATIVE_LABEL": "Condition not met"}
{"MOLECULE": "Cc1c(NC[C@@H]2CCC[C@H](c3ccccc3)C2)ncnc1C(=O)N1CCC(N2CCC(O)CC2)CC1", "MEASURED_ON": "CCR2 (Homo sapiens, UniProt P41597)", "QUALITATIVE_LABEL": "Condition not met"}
{"MOLECULE": "Cc1ccc([C@H]2CC[C@H](CNc3ncnc(C(=O)N4CCC(N5CCC(N(C)S(C)(=O)=O)CC5)CC4)c3C)O2)cc1 [Example 159gb]", "MEASURED_ON": "CCR2 (Homo sapiens, UniProt P41597)", "QUALITATIVE_LABEL": "Condition met"}

Q) Determine whether this molecule has pKi no lower than 7: Cc1c(NCC2CCC(c3ccc(Cl)cc3)O2)ncnc1C(=O)N1CCC(N2CCC(N(C)S(C)(=O)=O)CC2)CC1 (stereo not shown) [Example 159ab]
A) Condition met

Q) Determine whether this molecule has pKi no lower than 7: Cc1c(NCc2ccc(C(C)(C)C)cc2)ncnc1C(=O)N1CCCN(C2CCCC2)CC1
A) Condition not met
